Just for reference, patent US7169789B2 is where these values come from.

Form field: IC50 (one value per entry).
molecular target: human KDR (Homo sapiens, UniProt P35968); assay: Inhibitory activity against KDR phosphorylation by ELISA; details: NIH 3T3 cells transfected with human KDR, VEGF 100 ng/ml
Sequence (P35968 20-1356): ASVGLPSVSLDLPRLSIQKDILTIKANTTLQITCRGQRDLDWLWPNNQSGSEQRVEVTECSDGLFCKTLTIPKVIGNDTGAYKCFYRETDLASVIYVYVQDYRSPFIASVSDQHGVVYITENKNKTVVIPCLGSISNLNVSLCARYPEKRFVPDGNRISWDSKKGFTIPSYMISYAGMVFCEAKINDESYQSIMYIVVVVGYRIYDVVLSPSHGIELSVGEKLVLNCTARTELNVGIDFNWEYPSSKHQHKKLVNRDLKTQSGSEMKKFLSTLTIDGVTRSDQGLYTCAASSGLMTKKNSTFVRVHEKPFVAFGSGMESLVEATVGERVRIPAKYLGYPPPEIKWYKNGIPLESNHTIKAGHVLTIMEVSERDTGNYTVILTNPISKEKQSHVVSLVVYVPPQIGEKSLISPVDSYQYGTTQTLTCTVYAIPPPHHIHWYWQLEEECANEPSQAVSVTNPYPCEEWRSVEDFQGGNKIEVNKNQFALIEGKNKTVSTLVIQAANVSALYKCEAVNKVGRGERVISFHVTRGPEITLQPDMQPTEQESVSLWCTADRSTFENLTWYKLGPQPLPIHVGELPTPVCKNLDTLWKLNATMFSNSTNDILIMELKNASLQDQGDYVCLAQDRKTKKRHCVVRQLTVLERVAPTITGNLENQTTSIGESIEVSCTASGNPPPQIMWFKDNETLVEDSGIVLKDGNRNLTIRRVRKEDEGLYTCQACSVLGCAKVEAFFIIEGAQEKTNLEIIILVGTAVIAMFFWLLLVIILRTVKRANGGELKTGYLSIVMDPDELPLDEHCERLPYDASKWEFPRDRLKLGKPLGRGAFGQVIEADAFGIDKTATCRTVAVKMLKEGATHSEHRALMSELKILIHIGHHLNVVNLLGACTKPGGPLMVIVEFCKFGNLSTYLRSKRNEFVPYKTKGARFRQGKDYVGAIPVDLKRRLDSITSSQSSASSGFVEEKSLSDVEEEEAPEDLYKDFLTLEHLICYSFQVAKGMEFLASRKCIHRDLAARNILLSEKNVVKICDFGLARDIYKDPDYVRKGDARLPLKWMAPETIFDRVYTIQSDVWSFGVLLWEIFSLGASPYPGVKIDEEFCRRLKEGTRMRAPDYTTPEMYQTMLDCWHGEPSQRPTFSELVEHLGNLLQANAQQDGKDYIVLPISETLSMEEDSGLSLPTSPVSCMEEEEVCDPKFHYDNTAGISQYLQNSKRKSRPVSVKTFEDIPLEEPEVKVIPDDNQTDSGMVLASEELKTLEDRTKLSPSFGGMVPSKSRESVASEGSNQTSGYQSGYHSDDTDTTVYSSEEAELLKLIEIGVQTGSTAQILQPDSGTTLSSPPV

| Cpd smiles | IC50 |
| --- | --- |
| COc1cc2ncnc(Oc3ccc(NC(=O)N(C)c4ccc(Cl)cc4)c(Cl)c3)c2cc1OC | > 1000 nM |
| COc1cc2ncnc(Oc3ccc(NC(=O)NCc4ccc(F)cc4F)c(Cl)c3)c2cc1OC | 8.4 nM |
| CCCNC(=O)Nc1ccc(Oc2ccnc3cc(OCCN4CCN(C)CC4)c(OC)cc23)cc1Cl | 15 nM |
| COc1cc2ncnc(Oc3ccc(NC(=O)NCc4ccccn4)cc3)c2cc1OC | 350 nM |
| COc1cc2c(Oc3ccc(NC(=O)Nc4ccc(F)cc4F)c(Cl)c3)ccnc2cc1OCCn1ccnn1 | 1.1 nM |
| COc1ccccc1NC(=O)Nc1ccc(Oc2ncnc3cc(OC)c(OC)cc23)c(C)c1 | 3 nM |
| CNC(=O)Nc1ccc(Oc2ncnc3cc(OC)c(OC)cc23)cc1Cl | 24 nM |
| CCCNC(=O)Nc1ccc(Oc2ncnc3cc(OCc4ccncc4)c(OC)cc23)cc1Cl | 8.9 nM |

====

tested on: Human glioma cells GL07; assay: Antitumor effect on human glioma cells (GL07) transplanted into nude mice; assay type: in vivo; conditions: Mus musculus, Glioma cell, ip, 216 h, GL07, intraperitoneal, 20 mg/kg once a day for 9 days, read-out: TGIR, % (tumor growth inhibition rate)

| Cpd smiles | inhibition in vivo at 20 mg/kg (%) |
| --- | --- |
| COc1cc2nccc(Oc3ccc(NC(=O)Nc4ccc(F)cc4F)c([N+](=O)[O-])c3)c2cc1OC | 90 |
| CCCCNC(=O)Nc1ccc(Oc2ccnc3cc(OC)c(OC)cc23)cc1F | 59 |
| COc1cc2nccc(Oc3ccc(NC(=O)Nc4ccc(Cl)cn4)c(Cl)c3)c2cc1OC | 77 |
| COc1cc2nccc(Oc3ccc(NC(=O)Nc4ccc(F)cc4C)c(Cl)c3)c2cc1OC | 81 |
| CCCNC(=O)Nc1ccc(Oc2ccnc3cc(OC)c(OC)cc23)cc1Cl | 52 |
| COc1cc2nccc(Oc3cc(C)c(NC(=O)Nc4ccc(F)cc4F)cc3C)c2cc1OC | 70 |

====

// values below are reported inhibition in vivo at 20 mg/kg
test system: Human glioma cells GL07; test: Antitumor effect on human glioma cells (GL07) transplanted into nude mice; assay type: in vivo; details: Mus musculus, Glioma cell, 216 h, GL07, oral, 20 mg/kg once a day for 9 days, read-out: TGIR, % (tumor growth inhibition rate)
Quantity name: inhibition in vivo at 20 mg/kg (%)

| Cpd smiles | Target desc | Numeric readout |
| --- | --- | --- |
| COCCOc1cc2nccc(Oc3ccc(NC(=O)Nc4ccc(F)cc4F)c(Cl)c3)c2cc1OC | Human glioma cells GL07 | 59 |
| COc1cc2c(Oc3cc(C)c(NC(=O)Nc4ccc(F)cc4F)cc3C)ccnc2cc1OCCn1ccnn1 | Human glioma cells GL07 | 35 |
| CCCNC(=O)Nc1ccc(Oc2ncnc3cc(OCCCSc4ccncc4)c(OC)cc23)cc1Cl | Human glioma cells GL07 | 20 |
| CCCNC(=O)Nc1ccc(Oc2ncnc3cc(OC)c(OC)cc23)cc1 | Human glioma cells GL07 | 37 |

====

tested on: Human glioma cells GL07; assay: Antitumor effect on human glioma cells (GL07) transplanted into nude mice; type: in vivo; details: Mus musculus, Glioma cell, 216 h, GL07, oral, 20 mg/kg once a day for 9 days, read-out: TGIR, % (tumor growth inhibition rate)

| Compound | Scale unit | inhibition in vivo at 20 mg/kg |
| --- | --- | --- |
| CCCNC(=O)Nc1ccc(Oc2ccnc3cc(OCCn4ccnn4)c(OC)cc23)cc1Cl [Example 145] | % | 57 |
| CCCNC(=O)Nc1ccc(Oc2ncnc3cc(OC)c(OC)cc23)cc1[N+](=O)[O-] [Example 107] | % | 49 |
| CCCNC(=O)Nc1ccc(Oc2ncnc3cc(OCCN(C)CCO)c(OC)cc23)cc1Cl [Example 129] | % | 25 |
| CCCNC(=O)Nc1ccc(Oc2ccnc3cc(OCCn4ccnc4)c(OC)cc23)cc1Cl [Example 146] | % | 48 |

====

molecular target: human KDR (Homo sapiens); construct: expressed in transfected cells; host or cells: NIH 3T3 cells (Sawano A et al., Cell Growth & Differentiation 7, 213-221 (1996)); assay: Inhibitory activity against KDR phosphorylation by ELISA; format: cell-based; conditions: NIH 3T3 cells transfected with human KDR, VEGF 100 ng/ml
Reported values of IC50 for individual entries

| Cpd smiles | Target desc | Comparator | IC50, nM |
| --- | --- | --- | --- |
| COc1cc2c(Oc3ccc(NC(=O)N(C)C)c(Cl)c3)ncnc2cc1OCCCN(C)CCO | human KDR (Homo sapiens) | > | 1000 |
| COc1cc2c(Oc3ccc(NC(=O)Nc4ccc(F)cc4F)c(Cl)c3)ccnc2cc1OCCCN1CCOCC1 | human KDR (Homo sapiens) | = | 4 |
| COc1cc2ncnc(Oc3ccc(NC(=O)Nc4ccc(F)cc4F)c(F)c3)c2cc1OC | human KDR (Homo sapiens) | = | 2.3 |
| CCCNC(=O)Nc1ccc(Oc2ccnc3cc(OCCCN4CCN(C)CC4)c(OC)cc23)cc1Cl | human KDR (Homo sapiens) | = | 0.8 |
| CCNC(=O)Nc1ccc(Oc2ncnc3cc(OC)c(OC)cc23)cc1Cl | human KDR (Homo sapiens) | = | 3.5 |
| CCCNC(=O)Nc1ccc(Oc2ncnc3cc(OCCCCCN4CCOCC4)c(OC)cc23)cc1Cl | human KDR (Homo sapiens) | = | 1.9 |
| CCCNC(=O)Nc1ccc(Oc2ncnc3cc(OC)c(OC)cc23)cc1F | human KDR (Homo sapiens) | = | 61 |
| CCCNC(=O)Nc1ccc(Oc2ncnc3cc(OC)c(OC)cc23)cc1 | human KDR (Homo sapiens) | = | 150 |

====

Listed compounds paired with reported log10(IC50)
biological target: human KDR (Homo sapiens, UniProt P35968); assay: Inhibitory activity against KDR phosphorylation by ELISA; conditions: NIH 3T3 cells transfected with human KDR, VEGF 100 ng/ml
Quantity name: log10(IC50) (log10 of the value in nM)

| Compound | Quantity name | Numeric readout |
| --- | --- | --- |
| COc1cc2c(Oc3ccc(NC(=O)Nc4ccc(F)cc4F)c(Cl)c3)ncnc2cc1OCCCN1CCOCC1 [Example 163] | log10(IC50) | 0.15 |
| CCCNC(=O)Nc1ccc(Oc2ccnc3cc(OCCCn4ccnn4)c(OC)cc23)cc1Cl [Example 153] | log10(IC50) | 0.18 |
| CCCNC(=O)Nc1ccc(Oc2ccnc3cc(OCCCN(C)CCO)c(OC)cc23)cc1Cl [Example 157] | log10(IC50) | -0.40 |
| COc1cc2ncnc(Oc3ccc(NC(=O)N(C)c4ccccn4)c(Cl)c3)c2cc1OC [Example 83] | log10(IC50) | 2.92 |
| CCCCNC(=O)Nc1ccc(Oc2ncnc3cc(OC)c(OC)cc23)cc1[N+](=O)[O-] [Example 108] | log10(IC50) | 0.70 |
| CCC(C)NC(=O)Nc1ccc(Oc2ncnc3cc(OC)c(OC)cc23)cc1 (centres unmarked) [Example 67] | log10(IC50) | 1.80 |

====

molecular target: UniProtKB P35968; assay: Inhibitory activity against KDR phosphorylation by ELISA; conditions: NIH 3T3 cells transfected with human KDR, VEGF 100 ng/ml
pIC50: −log10 of the molar value.

| Molecule | Comparator | pIC50 |
| --- | --- | --- |
| COc1cc2ncnc(Oc3ccc(NC(=O)Nc4ccc(Cl)cn4)c(Cl)c3)c2cc1OC [Example 87] | = | 6.96 |
| CCNC(=O)Nc1cc(C)c(Oc2ccnc3cc(OCCN4CCOCC4)c(OC)cc23)cc1C [Example 175] | = | 8.33 |
| CCCNC(=O)Nc1ccc(Oc2ncnc3cc(OC)c(OC)cc23)c(C)c1 [Example 97] | = | 6.31 |
| COc1cc2ncnc(Oc3ccc(NC(=O)N(C)C)c(Cl)c3)c2cc1OC [Example 118] | < | 6.00 |
| CCCCNC(=O)Nc1ccc(Oc2ncnc3cc(OC)c(OC)cc23)cc1Cl [Example 77] | = | 8.22 |

====

Tested on: Human glioma cells GL07
Assay: Antitumor effect on human glioma cells (GL07) transplanted into nude mice
Format: in vivo
Conditions: Mus musculus, Glioma cell, 216 h, GL07, oral, 20 mg/kg once a day for 9 days, read-out: TGIR, % (tumor growth inhibition rate)
Experimental: Antitumor Effect on Human Glioma Cells (GL07) Human glioma cells GL07 (obtained from Central Laboratories for Experimental Animals) were transplanted into nude mice. When the tumor volume became about 100 mm^3, the mice were grouped. In this case, grouping was carried out so that each group consisted of four mice and the average tumor volume was even among the groups. […]
# inhibition in vivo at 20 mg/kg per entry
Quantity name: inhibition in vivo at 20 mg/kg (%)

| Cpd smiles | Quantity name | Numeric readout |
| --- | --- | --- |
| CCCNC(=O)Nc1ccc(Oc2ccnc3cc(OCCCN4CCOCC4)c(OC)cc23)cc1OC | inhibition in vivo at 20 mg/kg | 21 |
| CCCN(C)C(=O)Nc1ccc(Oc2ncnc3cc(OC)c(OC)cc23)cc1Cl | inhibition in vivo at 20 mg/kg | 78 |
| CCN(CC)C(=O)Nc1ccc(Oc2ncnc3cc(OCCn4ccnn4)c(OC)cc23)cc1Cl | inhibition in vivo at 20 mg/kg | 31 |
| CCCNC(=O)Nc1ccc(Oc2ccnc3cc(OCCCCn4ccnn4)c(OC)cc23)cc1Cl | inhibition in vivo at 20 mg/kg | 39 |
| COc1cc2c(Oc3ccc(NC(=O)Nc4ccc(F)cc4F)c(Cl)c3)ccnc2cc1OCCCN1CCOCC1 | inhibition in vivo at 20 mg/kg | 42 |
| CCCNC(=O)Nc1ccc(Oc2ccnc3cc(OCc4ccccn4)c(OC)cc23)cc1Cl | inhibition in vivo at 20 mg/kg | 28 |
| CCCNC(=O)Nc1ccc(Oc2ncnc3cc(OCCCO)c(OC)cc23)cc1Cl | inhibition in vivo at 20 mg/kg | 22 |
| COc1cc2c(Oc3ccc(NC(=O)Nc4ccc(F)cc4F)c(Cl)c3)ncnc2cc1OCCCN(C)CCO | inhibition in vivo at 20 mg/kg | 44 |
| CCCNC(=O)Nc1ccc(Oc2ccnc3cc(OCCN(C)CCO)c(OC)cc23)cc1Cl | inhibition in vivo at 20 mg/kg | 22 |
| CCCNC(=O)Nc1ccc(Oc2ccnc3cc(OCCN4CCOCC4)c(OC)cc23)cc1Cl | inhibition in vivo at 20 mg/kg | 56 |
| CCCNC(=O)Nc1ccc(Oc2ccnc3cc(OCCCCCn4ccnn4)c(OC)cc23)cc1Cl | inhibition in vivo at 20 mg/kg | 40 |
| CCCNC(=O)Nc1ccc(Oc2ncnc3cc(OCCCSc4nnnn4C)c(OC)cc23)cc1Cl | inhibition in vivo at 20 mg/kg | 29 |
| COC(=O)COc1cc2ncnc(Oc3ccc(NC(=O)N(C)C)c(Cl)c3)c2cc1OC | inhibition in vivo at 20 mg/kg | 21 |
| COc1cc2c(Oc3ccc(NC(=O)Nc4ccc(F)cc4F)c(Cl)c3)ccnc2cc1OCc1cccnc1 | inhibition in vivo at 20 mg/kg | 55 |
| C=CCNC(=O)Nc1ccc(Oc2ncnc3cc(OC)c(OC)cc23)cc1 | inhibition in vivo at 20 mg/kg | 57 |
| COc1cc2c(Oc3ccc(NC(=O)Nc4ccc(F)cc4F)c(F)c3)ccnc2cc1OCCN1CCOCC1 | inhibition in vivo at 20 mg/kg | 59 |
| CCCNC(=O)Nc1ccc(Oc2ncnc3cc(OCCCN4CCOCC4)c(OC)cc23)cc1OC | inhibition in vivo at 20 mg/kg | 13 |
